Overview of reported ETAG (OD) across a group of binders:
target: T1, antibody raised against ETAG; experiment: phage ELISA
T1 construct: Coated at 500 ng/well; also called E-tag antibody
OUTCOME MEASURE: ETAG (OD)

INSERT INTO measurements (binder, unit_string, meas_value) VALUES
  ('VWAAWVEGSLLSPRQEPVRDAAAGAPVPYPDPLEPRP [DGI-2-20R-4-G4]', 'OD', 13.6),
  ('SLECWAMPGMVVRLVGCDGPAAAGAPVPYPDPLEPRP [DGI-2-20R-4-H112]', 'OD', 12.3),
  ('LPQSRWLSEAWASWVDGVVDAAAGAPVPYPDPLEPRP [DGI-2-20F-4-F9]', 'OD', 19.6),
  ('RPVVCLAGLTLAQFGWVFPGWRGWSAAAGAPVPYPDPLEPRP [DGI-2-20C-3-C1039]', 'OD', 11.8),
  ('GGDLGEQGVQLCPDVVRGGSLAAAGAPVPYPDPLEPRP [DGI-2-20F-PP-A7]', 'OD', 42.2),
  ('CYLSRLFRSGQGIGQFGHVEAAAGAPVPYPDPLEPRP [DGI-2-20F-PP-A82]', 'OD', 16.5),
  ('YAMSSRECGIRNSGLILSMWAAAGAPVPYPDPLEPRP [DGI-2-20F-PP-C9]', 'OD', 31.6);
